# MEASUREMENT TARGET: Ecm22 (UniProt Q05958)
# Sequence: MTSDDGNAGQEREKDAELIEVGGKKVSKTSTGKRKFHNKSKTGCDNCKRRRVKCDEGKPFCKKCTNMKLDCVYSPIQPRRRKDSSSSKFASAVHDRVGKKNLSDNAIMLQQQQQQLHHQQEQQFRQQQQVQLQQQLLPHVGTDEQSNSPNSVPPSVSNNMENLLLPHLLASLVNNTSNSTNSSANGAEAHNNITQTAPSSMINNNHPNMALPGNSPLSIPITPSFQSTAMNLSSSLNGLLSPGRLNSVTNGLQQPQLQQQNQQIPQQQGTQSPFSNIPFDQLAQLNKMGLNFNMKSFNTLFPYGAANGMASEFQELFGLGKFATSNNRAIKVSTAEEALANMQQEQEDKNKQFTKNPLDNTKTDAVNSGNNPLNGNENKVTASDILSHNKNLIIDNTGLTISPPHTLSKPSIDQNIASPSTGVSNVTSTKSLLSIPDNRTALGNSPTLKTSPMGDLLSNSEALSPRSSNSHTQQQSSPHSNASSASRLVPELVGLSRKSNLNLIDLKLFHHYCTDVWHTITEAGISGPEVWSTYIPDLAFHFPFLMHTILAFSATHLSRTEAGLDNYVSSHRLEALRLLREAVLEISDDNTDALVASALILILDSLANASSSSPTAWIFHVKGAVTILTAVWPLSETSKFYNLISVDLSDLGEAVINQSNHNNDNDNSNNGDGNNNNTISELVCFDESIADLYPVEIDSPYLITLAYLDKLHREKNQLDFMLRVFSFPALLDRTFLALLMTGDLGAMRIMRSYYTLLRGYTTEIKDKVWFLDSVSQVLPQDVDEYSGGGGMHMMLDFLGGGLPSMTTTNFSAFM
# TEST METHOD NOTES: PBM E-score (8-mer binding enrichment) (E-score (-0.5 to 0.5)); higher = stronger / more preferred TF binding
# COND: protein concentration: 200 nM; construct: GST-full length
Whole data set: some 33,000 sequences, median “E-score (-0.5 to 0.5)” near -0.041, cut for the highest 2% near 0.37. For the sample, the highest values were picked, then their nearest neighbours and some sequences at random.
The label depends only on PBM E-score: satisfied if it is at least 0.1, not satisfied if it is smaller.

INSERT INTO measurements (sequence_string, label) VALUES
  ('ACAACGAG', 'satisfied'),
  ('ACGAGCGG', 'satisfied'),
  ('ATAATTAT', 'satisfied'),
  ('CGAACGAG', 'satisfied'),
  ('AGAACGAG', 'satisfied'),
  ('AAGCTCGA', 'not satisfied'),
  ('CGAACGAC', 'satisfied'),
  ('CACGTAAA', 'satisfied'),
  ('ATGAGCGG', 'not satisfied'),
  ('GCGAGCGA', 'satisfied'),
  ('AAACTGTG', 'not satisfied'),
  ('ATATCAAG', 'not satisfied'),
  ('AAGAGCGT', 'not satisfied'),
  ('CGAACGCC', 'not satisfied'),
  ('CCCGTAAA', 'satisfied'),
  ('ACGAGCGA', 'satisfied'),
  ('AATCTCGG', 'satisfied'),
  ('AGGAAGGG', 'not satisfied'),
  ('CCGAGCGA', 'satisfied'),
  ('AATCTCGA', 'not satisfied'),
  ('AGAACGGA', 'not satisfied');
